# Tested on: MCF7/VP cells
# Protocol description: Drug cytotoxicity with or without 10 μM modulator, MCF7/VP (MRP1) cells (Table V)
# Stated conditions: read-out: IC50 (EtOH); MCF7/VP (MRP1) cells; drug alone, EtOH solvent control, no modulator
pIC50: −log10 of the molar value.
Measured property: pIC50

{"columns": ["Molecule", "Measured property", "Observed measurement"],
 "data": [
  ["N.N.[Cl][Pt][Cl] [Cisplatin, cisplatin, reference compound]", "pIC50", 5.07]
]}

----------
# Study system: P-gp (Homo sapiens, UniProt P08183)
# Sequence (P08183 whole entry): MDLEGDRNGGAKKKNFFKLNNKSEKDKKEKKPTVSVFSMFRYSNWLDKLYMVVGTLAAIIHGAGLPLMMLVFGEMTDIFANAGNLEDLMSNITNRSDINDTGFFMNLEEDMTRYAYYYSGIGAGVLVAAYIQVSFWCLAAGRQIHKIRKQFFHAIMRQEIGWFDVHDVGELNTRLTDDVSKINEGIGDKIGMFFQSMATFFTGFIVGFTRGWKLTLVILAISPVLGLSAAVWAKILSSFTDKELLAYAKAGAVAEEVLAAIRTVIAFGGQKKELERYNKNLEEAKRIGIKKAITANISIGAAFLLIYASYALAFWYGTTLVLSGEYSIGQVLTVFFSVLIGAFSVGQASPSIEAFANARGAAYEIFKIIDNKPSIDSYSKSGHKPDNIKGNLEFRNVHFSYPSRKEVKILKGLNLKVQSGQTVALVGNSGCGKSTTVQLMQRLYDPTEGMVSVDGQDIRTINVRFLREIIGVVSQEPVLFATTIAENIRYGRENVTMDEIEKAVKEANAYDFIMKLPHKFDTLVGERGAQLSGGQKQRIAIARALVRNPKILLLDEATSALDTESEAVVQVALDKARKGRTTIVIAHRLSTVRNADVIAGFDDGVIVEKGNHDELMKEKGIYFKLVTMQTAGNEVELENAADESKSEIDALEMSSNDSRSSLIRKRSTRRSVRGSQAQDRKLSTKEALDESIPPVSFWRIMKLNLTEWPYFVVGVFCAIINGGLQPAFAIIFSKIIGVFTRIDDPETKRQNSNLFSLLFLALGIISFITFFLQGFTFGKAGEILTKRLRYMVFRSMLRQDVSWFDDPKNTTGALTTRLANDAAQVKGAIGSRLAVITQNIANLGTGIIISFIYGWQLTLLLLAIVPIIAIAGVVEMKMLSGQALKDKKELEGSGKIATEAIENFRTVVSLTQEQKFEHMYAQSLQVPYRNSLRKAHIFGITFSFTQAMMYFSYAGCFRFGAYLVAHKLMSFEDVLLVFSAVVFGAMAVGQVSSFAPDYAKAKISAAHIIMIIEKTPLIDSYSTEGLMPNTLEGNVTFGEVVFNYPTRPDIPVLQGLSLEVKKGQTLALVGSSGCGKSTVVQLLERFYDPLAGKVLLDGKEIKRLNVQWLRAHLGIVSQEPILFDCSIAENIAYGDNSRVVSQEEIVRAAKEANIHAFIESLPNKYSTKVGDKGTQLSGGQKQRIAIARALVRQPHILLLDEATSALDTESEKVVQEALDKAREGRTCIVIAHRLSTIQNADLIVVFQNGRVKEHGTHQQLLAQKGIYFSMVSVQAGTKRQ
# Stated conditions: NCI/ADR cells; % survival with compound alone / with compound + 50 nM vinblastine
Measured property: Pgp Antagonism

{"columns": ["Structure", "Measured property", "Observed measurement"],
 "data": [
  ["CCC(=O)Nc1c2c(nc3ccccc13)N(C)CC2", "Pgp Antagonism", 1.6],
  ["Nc1c2c(nc3ccccc13)N(C1CCCCC1)CC2", "Pgp Antagonism", 0.8],
  ["Nc1c2c(nc3ccccc13)N(Cc1ccccc1)CC2", "Pgp Antagonism", 3.1],
  ["CC(C)NCC(=O)Nc1c2c(nc3ccccc13)N(C)CC2", "Pgp Antagonism", 1.8],
  ["O=C(Nc1c2c(nc3ccccc13)N(Cc1cccc(Cl)c1)CC2)C12CC3CC(CC(C3)C1)C2", "Pgp Antagonism", 1.2],
  ["CN1CCc2c1nc1ccccc1c2NC(=O)CN1CCCCC1", "Pgp Antagonism", 4.1],
  ["CN1CCc2c1nc1ccccc1c2N=C(c1ccccc1)N1CCCCC1", "Pgp Antagonism", 2.4],
  ["CN1CCc2c1nc1ccccc1c2NC(=O)CNC(C)(C)C", "Pgp Antagonism", 3.2],
  ["CN1CCN(CC(=O)Nc2c3c(nc4ccccc24)N(Cc2ccccc2)CC3)CC1", "Pgp Antagonism", 7.5],
  ["CN1CCc2c1nc1ccccc1c2NC(=O)C12CC3CC(CC(C3)C1)C2", "Pgp Antagonism", 4.7],
  ["CCCCN(CCCC)CC(=O)Nc1c2c(nc3ccccc13)N(C)CC2", "Pgp Antagonism", 4.2],
  ["CC(C)(C)c1cc(CCC(=O)Nc2c3c(nc4ccccc24)N(Cc2ccccc2)CC3)cc(C(C)(C)C)c1O", "Pgp Antagonism", 13.2],
  ["CN1CCc2c1nc1ccccc1c2NC(=O)CNCCc1ccc(O)cc1", "Pgp Antagonism", 1.7],
  ["O=C(CN1CCCCC1)Nc1c2c(nc3ccccc13)N(Cc1ccccc1)CC2", "Pgp Antagonism", 17.8],
  ["CCN(CC)CC(=O)Nc1c2c(nc3ccccc13)N(Cc1ccccc1)CC2", "Pgp Antagonism", 14.8],
  ["CN1CCc2c1nc1ccccc1c2NC(=O)CCc1cc(C(C)(C)C)c(O)c(C(C)(C)C)c1", "Pgp Antagonism", 1.0],
  ["CN1CCc2c1nc1cc(Br)ccc1c2N", "Pgp Antagonism", 1.3],
  ["CCN(CC)CC(=O)Nc1c2c(nc3ccccc13)N(C)CC2", "Pgp Antagonism", 6.0],
  ["Nc1c2c(nc3ccccc13)N(c1ccccc1)CC2", "Pgp Antagonism", 2.7],
  ["CC(C)NCC(=O)Nc1c2c(nc3ccccc13)N(Cc1ccccc1)CC2", "Pgp Antagonism", 13.0]
]}
